Assay: Inhibition of bovine testis hyaluronidase using hyaluronic acid as substrate preincubated for 20 mins followed by incubation with CaCl2 for 20 mins and substrate for 10 mins by colorimetric Morgan-Elson method
Design: species or system Bos taurus
pIC50: −log10 of the molar value.
assayEndpoint: pIC50

COc1ccc2c(c1)c(CC(=O)O)c(C)n2C(=O)c1ccc(Cl)cc1: 3.47
O=C(O)[C@H]1O[C@@H](Oc2cc3oc(-c4ccccc4)cc(=O)c3c(O)c2O)[C@H](O)[C@@H](O)[C@@H]1O: 3.35

a = CC1(C)[C@@H](O[C@H]2O[C@H](C(=O)O)[C@@H](O)[C@H](O)[C@H]2O[C@@H]2O[C@H](C(=O)O)[C@@H](O)[C@H](O)[C@H]2O)CC[C@]2(C)[C@H]3C(=O)C=C4[C@@H]5C[C@@](C)(C(=O)O)CC[C@]5(C)CC[C@@]4(C)[C@]3(C)CC[C@@H]12
b = O=C(O)c1cc(=O)c2c(OCC(O)COc3cccc4oc(C(=O)O)cc(=O)c34)cccc2o1 [CROMOLYN SODIUM]
c = CCCCCCCCCCCCCCCC(=O)OC[C@H](O)C1OC(=O)C(O)=C1O (stereo not given in full)
Let's sort these by pIC50, smallest first. Go ahead? To answer, write out the labels according to the requested order.
b, c, a
(b: 3.48, c: 4.64, a: 5.07)

* * *

Test: Inhibition of bovine testis hyaluronidase using hyaluronic acid as substrate preincubated with CaCl2 for 20 mins followed by incubation with compound for 20 mins and substrate for 10 mins by colorimetric Morgan-Elson method in presence of BSA
Parameters: species or system Bos taurus
assayEndpoint: IC50 (mM)

Consider the following illustrative entries.
COc1ccc2c(c1)c(CC(=O)O)c(C)n2C(=O)c1ccc(Cl)cc1 [INDOMETHACIN]: 2
CC1(C)[C@@H](O[C@H]2O[C@H](C(=O)O)[C@@H](O)[C@H](O)[C@H]2O[C@@H]2O[C@H](C(=O)O)[C@@H](O)[C@H](O)[C@H]2O)CC[C@]2(C)[C@H]3C(=O)C=C4[C@@H]5C[C@@](C)(C(=O)O)CC[C@]5(C)CC[C@@]4(C)[C@]3(C)CC[C@@H]12 [GLYCYRRHIZIN]: 0.061
O=C(O)c1cc(=O)c2c(OCC(O)COc3cccc4oc(C(=O)O)cc(=O)c34)cccc2o1 [CROMOLYN SODIUM]: 1.6

I = CCCCCCCCCCCCCCCC(=O)OC[C@H](O)C1OC(=O)C(O)=C1O (stereo not given in full)
II = O=C(O)[C@H]1O[C@@H](Oc2cc3oc(-c4ccccc4)cc(=O)c3c(O)c2O)[C@H](O)[C@@H](O)[C@@H]1O [BAICALIN]
Please state the entry with greater IC50 among I and II . # answer = label of selected item
II

* * *

Organism: Bos taurus
Test: Inhibition of bovine testis hyaluronidase preincubated with CaCl2 for 20 mins followed by incubation with compound for 20 mins and substrate for 10 mins by colorimetric Morgan-Elson method in presence of up to 21% DMSO
Calls of active or inactive are those of the source. The calls are words filed in the database; no cut-off is given here.
# output must be one of yes = active, no = inactive

Check out these entries, answers already filled in.
O=C(O)c1cc(=O)c2c(OCC(O)COc3cccc4oc(C(=O)O)cc(=O)c34)cccc2o1 [CROMOLYN SODIUM]: no
CC1(C)[C@@H](O[C@H]2O[C@H](C(=O)O)[C@@H](O)[C@H](O)[C@H]2O[C@@H]2O[C@H](C(=O)O)[C@@H](O)[C@H](O)[C@H]2O)CC[C@]2(C)[C@H]3C(=O)C=C4[C@@H]5C[C@@](C)(C(=O)O)CC[C@]5(C)CC[C@@]4(C)[C@]3(C)CC[C@@H]12: no
O=C(O)[C@H]1O[C@@H](Oc2cc3oc(-c4ccccc4)cc(=O)c3c(O)c2O)[C@H](O)[C@@H](O)[C@@H]1O: no

Consider now this further compound.
Could you please tell me the result logged for CCCCCCCCCCCCCCCC(=O)OC[C@H](O)C1OC(=O)C(O)=C1O (some centres undefined) in this assay?
yes
